- experimental.system: mouse HER2 (23-653) (Mus musculus, UniProt P70424)
- protocol.notes: TR-FRET competition assay for peptide potency, mouse HER2
- Assay type: binding
- Set-up: mouse HER2 (23-653) using a Cy5 labeled peptide as a probe; made in house; host or cells: mammalian cells
- measurement.context: value in parentheses (**): recalculated after further repetition; read-out: moHER2 TR-FRET IC50, recalculated value achieved after further repetition
reported.endpoint: IC50

{"smiles.string": "CC(=O)NCCCC[C@H]1C(=O)N[C@@H](Cc2c[nH]c3ccc(O)cc23)C(=O)N[C@@H](Cc2c[nH]c3ccccc23)C(=O)N[C@@H]([C@H](C)O)C(=O)N(C)[C@H](C(=O)N(C)[C@@H](Cc2ccc(F)cc2)C(=O)N[C@@H](CCCCNC(=O)N2CCN(CC(=O)O)CC2)C(=O)N[C@H](CCCCNC(=O)CN2CCN(CC(=O)O)CCN(CC(=O)O)CCN(CC(=O)O)CC2)C(N)=O)CNC(=O)CC[C@H](NC(C)=O)C(=O)N[C@@H](Cc2ccc(O)cc2)C(=O)N[C@@H](CO)C(=O)N(C)[C@@H](CCc2ccccc2)C(=O)N1C", "observed": "49 nM"}

----------
- experimental.system: human HER2 (23-652) (Homo sapiens, UniProt P04626)
- protocol.notes: Surface plasmon resonance (SPR) for assessment of peptide affinity, human HER2
- Type: binding
- Set-up: towards human HER2 (23-652) and mouse HER2 (23-653); made in house
pKd: −log10 of the molar value. Where a name gives a salt, the structure may show the parent alone. Starred links: 1 amine or outer side, 2 acyl side, 3 side chain; linkers in the order of their positions; H or OH if unused. Positions of bridges follow the written chain, without caps; N, C: chain ends. Non-standard residues stand in square brackets, D forms with d. Residues, ends and D or L forms follow the SMILES beside them. Nle(4-yne,6-yl) = O=C([C@H](CC#CC[*:3])N[*:1])[*:2]; Trp(5-OH) = N[C@@H](Cc1c[nH]c2ccc(O)cc12)C(=O)O; NMePhe(4-F) = CN[C@@H](Cc1ccc(F)cc1)C(=O)O; NMehPhe = CN[C@@H](CCc1ccccc1)C(=O)O; Gly(cPr) = N[C@H](C(=O)O)C1CC1; NMeDap = CN[C@@H](CN)C(=O)O; NMeC = CN[C@@H](CS)C(=O)O; NMeS = CN[C@@H](CO)C(=O)O; Dap = NC[C@H](N)C(=O)O; X5 = O=C(C[*:2])[*:1]
Documented pKd across a set of compounds

{"compound": "CN1C(=O)[C@H](CO)NC(=O)[C@H](Cc2ccc(O)cc2)NC(=O)[C@@H](N)CNC(=O)CSC[C@@H](C(=O)N(C)[C@@H](Cc2ccc(F)cc2)C(N)=O)N(C)C(=O)[C@H](C2CC2)NC(=O)[C@H](Cc2c[nH]c3ccccc23)NC(=O)[C@H](Cc2c[nH]c3ccc(O)cc23)NC(=O)[C@H](CO)N(C)C(=O)[C@@H]1CCc1ccccc1 [Example A53, TFA salt] (H-[Dap]YS[NMehPhe][NMeS][Trp(5-OH)]W[Gly(cPr)][NMeC][NMePhe(4-F)]-NH2; linker 1-9 via X5)", "experimental.system": "human HER2 (23-652) (Homo sapiens, UniProt P04626)", "pKd": 6.88}
{"compound": "CC[N+]1=C(/C=C/C=C/C=C2/N(CCCCCC(=O)NCCCC[C@H](NC(=O)[C@H](Cc3ccc(F)cc3)N(C)C(=O)[C@@H]3CNC(=O)CC[C@H](NC(C)=O)C(=O)N[C@@H](Cc4ccc(O)cc4)C(=O)N[C@@H](CO)C(=O)N(C)[C@@H](CCc4ccccc4)C(=O)N(C)[C@@H](CCCCNC(C)=O)C(=O)N[C@@H](Cc4c[nH]c5ccc(O)cc45)C(=O)N[C@@H](Cc4c[nH]c5ccccc45)C(=O)N[C@@H]([C@H](C)O)C(=O)N3C)C(N)=O)c3ccc(S(=O)(=O)O)cc3C2(C)C)C(C)(C)c2cc(S(=O)(=O)O)ccc21", "experimental.system": "human HER2 (23-652) (Homo sapiens, UniProt P04626)", "pKd": 9.40}
{"compound": "CN1C(=O)[C@H](CO)NC(=O)[C@H](Cc2ccc(O)cc2)NC(=O)[C@@H](N)CC#CCSC[C@@H](C(=O)N(C)[C@@H](Cc2ccc(F)cc2)C(N)=O)N(C)C(=O)[C@H](C2CC2)NC(=O)[C@H](Cc2c[nH]c3ccccc23)NC(=O)[C@H](Cc2c[nH]c3ccc(O)cc23)NC(=O)[C@H](CO)N(C)C(=O)[C@@H]1CCc1ccccc1 [Example A52, TFA salt] (H-[Nle(4-yne,6-yl)]YS[NMehPhe][NMeS][Trp(5-OH)]W[Gly(cPr)][NMeC][NMePhe(4-F)]-NH2; thioether 1-9)", "experimental.system": "human HER2 (23-652) (Homo sapiens, UniProt P04626)", "pKd": 6.00}
{"compound": "CN1C(=O)[C@H](CO)NC(=O)[C@H](Cc2ccc(O)cc2)NC(=O)[C@@H](N)CC(=O)NC[C@@H](C(=O)N(C)[C@@H](Cc2ccc(F)cc2)C(N)=O)N(C)C(=O)[C@H](C2CC2)NC(=O)[C@H](Cc2c[nH]c3ccccc23)NC(=O)[C@H](Cc2c[nH]c3ccc(O)cc23)NC(=O)[C@H](CO)N(C)C(=O)[C@@H]1CCc1ccccc1 [Example A37, TFA salt] (H-DYS[NMehPhe][NMeS][Trp(5-OH)]W[Gly(cPr)][NMeDap][NMePhe(4-F)]-NH2; lactam 1-9)", "experimental.system": "human HER2 (23-652) (Homo sapiens, UniProt P04626)", "pKd": 6.34}
